Test system: SK-MEL-28 melanoma
Assay Explanation: NCI-60 one-dose screen, 48 h
Test Context: 10 µM unless noted
The panel holds about 83,000 compounds, 20% with a hit somewhere; the sample as a whole holds those more often. Calls of active or inactive are those of the source. Rule for the calls: active = growth percent below 10; inactive = the rest.
Pick one: active, inactive

Example entries and their recorded answers appear below.
Compound	Category Label
CN(C)CCn1c2ccccc2c2nc3ccc([N+](=O)[O-])cc3nc21	active
Cc1sc(C(NC(=O)OCCn2c([N+](=O)[O-])cnc2C)C(F)(F)Cl)nc1-c1ccc(OC(F)(F)F)cc1 (stereo not drawn)	active
COc1c(F)ccc(C(=O)Nc2ccc3nc(NC(=O)C4CCCN(S(=O)(=O)c5ccc(Br)c(F)c5)C4)sc3c2)c1F (stereo not drawn)	inactive
COc1ccc2[nH]cc(-c3nnc(N)nc3-c3cn(C)c4ncc(Br)cc34)c2c1	inactive
NC(=S)Nc1cccc(NC(N)=S)c1	inactive
COc1cc2c(c(OC)c1OC)C(=O)CC(c1cccc(NC(=O)c3cccc(NC(=O)[C@H](C)NC(=O)OC(C)(C)C)c3)c1)O2 (stereo partly drawn)	inactive

Prompt line: Hi team, can someone confirm the assay call for C=C1CC[C@@H]2[C@]3(C)COC(c4cn[nH]c4-c4ccc(F)cc4)O[C@@H]3CC[C@@]2(C)[C@@H]1C/C=C1/C(=O)OCC1O (stereo partly drawn) ?
Response line: active

Prompt line: Moving on to the next compound: C#CCOc1cc(N(CC)CC)ccc1C(C(=O)NC(C)(C)C)N(C(=O)C1CCc2cc(F)ccc2O1)c1cc(C)cc(C)c1 (stereo not drawn)
Response line: inactive

====

I'd be grateful if you could share measured growth for these entries.
System: MDA-MB-435 melanoma
Assay Explanation: NCI-60 one-dose screen, 48 h (100 = growth as untreated, 0 = no growth, -100 = all killed)
Test Context: 10 µM unless noted
About 83,000 compounds went through this panel and 20% of them were active in at least one assay; those are over-represented in the sample as a whole.
One number for each entry, in %.

Look over these answered cases.
Compound	growth / %
CCCn1cc(-c2nc(Nc3ccc(C(=O)NCCCCNc4cccc5c4C(=O)N(C4CCC(=O)NC4=O)C5=O)cc3)nc3[nH]ccc23)cn1 (stereo unspecified)	34.2
CCN1C(=O)/C(=N\N=C(/C)c2ccc3c(c2)Nc2ccccc2S3)c2cc(Cl)ccc21	29.6
CC(=O)Oc1ccccc1C(=O)[Se]C(=NC1CCCCC1)NC1CCCCC1	-77.2
CC1(C)CC[C@]2(C(=O)O)CC[C@]3(C)C(=CCC4[C@@]5(C)C[C@@H](O)[C@@H]6OC(c7ccccc7Br)OC[C@@]6(C)C5CC[C@]43C)C2C1 (stereo partly specified)	28
O=C(NN1C(=O)/C(=C/C=C/c2ccc([N+](=O)[O-])o2)SC1=S)c1ccccc1O	-89.7
COc1ccc(NC(=O)c2sc3nc(C(C)C)ccc3c2N)cc1	87.5
Cc1c(C(=O)NNC(=O)Nc2ccc(Cl)cc2)nnn1-c1ccc(Br)cc1	99.7
COc1ccc(-c2nc3cc(C)ccc3n2CC(=O)N=Nc2c(O)[nH]c3ccc(OC)cc23)cc1	-67.8
CN(C)c1ccnc(CNCCSC2(c3ccc(C(F)(F)F)cc3)c3ccccc3CCc3ccccc32)c1	-80.6
CC(=O)OC[C@@]1(C)C2CC[C@]3(C)C(CC=C4C5CC(C)(C)CC[C@]5(C(=O)Nc5ccc(F)cc5)CC[C@]43C)[C@@]2(C)C[C@@H](OC(C)=O)[C@@H]1OC(C)=O (stereo partly specified)	44.2

Please go through the list and note growth for each compound.
1. c1ccc(-c2csc(Nc3cccc(Nc4nc(-c5ccccc5)cs4)c3)n2)cc1
2. COc1ccc(C2CC(c3ccc(S(=O)(=O)NCCNc4nc(Nc5ccc(F)cc5)nc(N(C)C)n4)cc3)=Nc3c(N)nc(N)nc3N2)cc1 (stereo unspecified)
3. COc1ccc([C@H](C)Nc2nc(Cl)nc3ccccc23)cc1

Response line:
1: 44.7; 2: 83.3; 3: 45.8

Please go through the list and note growth for each compound.
1. CSc1ccc(C(=O)Nc2ccc3nn(/C(C#N)=C/c4ccccn4)nc3c2)cc1
2. COc1ccc2[nH]cc(-c3nc(N)nnc3-c3cn(C)c4ncccc34)c2c1
3. CCN(CC)CCOc1ccc(Nc2ncc3cc(-c4ccc(O)c(C#N)c4)c(=O)n(C)c3n2)cc1
4. CC12CC[C@@H]3[C@]4(C)COC(c5cn[nH]c5-c5ccc(Br)cc5)O[C@@H]4CC[C@@]3(C)[C@@H]1CC(C1=CCOC1=O)O2 (stereo partly specified)

Response line:
1: -44.9; 2: -1.52; 3: 29.9; 4: 51.8

Please go through the list and note growth for each compound.
1. N#Cc1c(-c2ccc(Br)cc2)nc2n[nH]c(-c3ccc(Br)cc3)c2c1-c1ccc(C(F)(F)F)cc1
2. Cn1cc(-c2cc3nc(-c4c[nH]c5ccc(Br)cc45)cc(N)n3n2)c2ccccc21
3. O=C(NNc1nc2cc(F)ccc2n2c(CN3CCCCC3)ccc12)c1cnccn1
4. COc1cc(CNC(=O)/C=C/c2ccc3c(c2)OCO3)ccc1OCc1cn(-c2ccc([N+](=O)[O-])cc2)nn1

Response line:
[3.09, -88.6, -46.3, 101]

Please go through the list and note growth for each compound.
1. O=C(/C=C/Nc1ccc2oc(=O)ccc2c1)c1cc2cc(Br)ccc2oc1=O
2. CN(C)CCn1c2ccccc2c2nc3cc(C(F)(F)F)ccc3nc21
3. CCOC(=O)c1ccc(Nc2nc(NN)nc(-c3ccc(F)cc3)c2C#N)cc1
4. CN(C)CCOc1ccc(C(=O)C2[C@H](c3ccc(Cl)cc3)[C@@H](c3ccccc3)NC23C(=O)Nc2ccccc23)cc1 (stereo partly specified)
5. COc1ccc2cc([C@H](C)C(=O)N/N=C/c3ccc(Br)cc3)ccc2c1
6. CC(=O)Nc1ccc(-c2cn(-c3cccc(C(=O)Nc4ccc(N5CCN(C)CC5)cc4)c3)nn2)cn1

Response line:
1: 103; 2: 40.3; 3: 111; 4: 44.6; 5: 103; 6: 100
